target: C-X-C chemokine receptor type 4 (Homo sapiens) (UniProt P61073); test: Inhibition of biotinylated TN14003 binding to CXCR4 in human MDA-MB-231 cells preincubated for 10 mins followed by biotinylated-TN14003 addition measured after 30 mins by streptavidin-rhodamine staining based fluorescence microscopic analysis; assay type: cell-based
Sequence (P61073 whole entry): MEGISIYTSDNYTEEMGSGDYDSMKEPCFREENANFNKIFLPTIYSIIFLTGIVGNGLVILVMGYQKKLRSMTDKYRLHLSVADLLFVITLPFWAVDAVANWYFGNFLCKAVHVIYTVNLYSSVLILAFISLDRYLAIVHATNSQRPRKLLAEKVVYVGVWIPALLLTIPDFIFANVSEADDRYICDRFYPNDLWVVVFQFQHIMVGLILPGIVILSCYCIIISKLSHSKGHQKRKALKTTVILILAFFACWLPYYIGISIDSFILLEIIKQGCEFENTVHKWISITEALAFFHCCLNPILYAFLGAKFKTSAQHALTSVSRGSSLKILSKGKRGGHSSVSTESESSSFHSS
For each record, write down the corresponding EC.
Number only, in nM; omit the unit.

Task item: GET EC where system = C-X-C chemokine receptor type 4 (Homo sapiens) (UniProt P61073) and item = "FC(F)(F)c1cccc(NCc2ccc(CNc3cccc(C(F)(F)F)c3)s2)c1"
Reply: 100

Task item: GET EC where system = C-X-C chemokine receptor type 4 (Homo sapiens) (UniProt P61073) and item = "Cc1ccc(NCc2ccc(CNc3ccc(C)cc3)o2)cc1"
Reply: 100

Task item: GET EC where system = C-X-C chemokine receptor type 4 (Homo sapiens) (UniProt P61073) and item = "COc1cccc(NCc2ccc(CNc3cccc(OC)c3)s2)c1"
Reply: 1000

Task item: GET EC where system = C-X-C chemokine receptor type 4 (Homo sapiens) (UniProt P61073) and item = "c1ccc(NCc2cscc2CNc2ccccc2)cc1"
Reply: 10

Task item: GET EC where system = C-X-C chemokine receptor type 4 (Homo sapiens) (UniProt P61073) and item = "c1cc(CN2CCOCC2)oc1CN1CCOCC1"
Reply: 1000

Task item: GET EC where system = C-X-C chemokine receptor type 4 (Homo sapiens) (UniProt P61073) and item = "COc1ccc(NCc2ccc(CNc3ccc(OC)cc3)s2)cc1"
Reply: 10

Task item: GET EC where system = C-X-C chemokine receptor type 4 (Homo sapiens) (UniProt P61073) and item = "COc1ccccc1NCc1ccc(CNc2ccccc2OC)o1"
Reply: 100

Task item: GET EC where system = C-X-C chemokine receptor type 4 (Homo sapiens) (UniProt P61073) and item = "c1cc(CN2CCSCC2)sc1CN1CCSCC1"
Reply: 1

Task item: GET EC where system = C-X-C chemokine receptor type 4 (Homo sapiens) (UniProt P61073) and item = "c1cc(CN2CCSCC2)oc1CN1CCSCC1"
Reply: 10

Task item: GET EC where system = C-X-C chemokine receptor type 4 (Homo sapiens) (UniProt P61073) and item = "Clc1ccccc1NCc1ccc(CNc2ccccc2Cl)s1"
Reply: 10

Task item: GET EC where system = C-X-C chemokine receptor type 4 (Homo sapiens) (UniProt P61073) and item = "CCc1ccccc1NCc1ccc(CNc2ccccc2CC)s1"
Reply: 1000
